Tested on: RSK2(Kin.Dom.2-C-terminal)
Construct: gene RPS6KA3
Settings: concentration: 1 μM, replicates: in singlicate; n = 1;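 note: KINOMEscan kinase panel screen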
parameter measured: %Inh
The number alone won't do; follow it with the unit.

Entry Cc1ccc(NC(=O)c2ccc(Cl)cc2)cc1-c1ccc(C(=O)Nc2ccncc2)cc1 ; %Inh = 2%

Entry COC(=O)c1cccc(NC(=O)NC2CCN(c3ccnc(Nc4ccc(F)cc4)n3)C2)c1 (centres unmarked) ; %Inh = 0%

Entry CC(=O)c1cccc(NC(=O)NC2CCN(c3ccnc(Nc4ccc(F)cc4)n3)C2)c1 (centres unmarked) ; %Inh = 30%

Entry CS(=O)(=O)Cc1ccc(Nc2nccc(-c3c(-c4cccc(NC(=O)C5CCCCC5)c4)nn4ncccc34)n2)cc1 ; %Inh = 11%

Entry CS(=O)(=O)CCNCc1nc(-c2ccc3ncnc(Nc4ccc(OCc5ccccc5)c(Cl)c4)c3c2)cs1.Cl ; %Inh = 2%

Entry NS(=O)(=O)c1cccc(N/C=C2\C(=O)Nc3ccc(S(=O)(=O)Cc4c(Cl)cccc4Cl)cc32)c1 ; %Inh = 0%

Entry COc1nccc(-c2c(-c3ccc(F)cc3)ncn2CCCN2CCOCC2)n1 ; %Inh = 17%

Entry COc1cc2ncnc(Nc3cccc(Br)c3)c2cc1OC.Cl ; %Inh = 5%

Entry O=C1NC(=O)C(c2ccc(Cl)cc2)=C1Nc1ccc(O)cc1 ; %Inh = 0%

Entry CCn1c(-c2c(N)noc2C)nc2cnccc21 ; %Inh = 8%

Entry O=c1cc(N2CCOCC2)nc2n(Cc3ccccc3F)ccn12 ; %Inh = 0%

Entry Cc1cccc2c(-c3ccncn3)c(-c3ccc(F)cc3)nn12 ; %Inh = 8%

Entry Cn1cnc2c(N)ncnc21 ; %Inh = 0%

Entry O=C(Nc1n[nH]c2nc(-c3cccs3)c(Br)cc12)C1CC1 ; %Inh = 0%

Entry CC(=O)c1c(C)c2cnc(Nc3ccn(C)n3)nc2n(C2CCCC2)c1=O ; %Inh = 0%

Entry COC(=O)c1cccc(NC(=O)NC2CCN(c3ccnc(Nc4ccc(OC)cc4)n3)C2)c1 (centres unmarked) ; %Inh = 0%

Entry COc1cccc(CNC(=O)NC2CCN(c3ccnc(Nc4ccc(F)cc4)n3)C2)c1 (centres unmarked) ; %Inh = 28%

====

Test system: PRP4
Conditions: concentration: 1 μM, replicates: in singlicate; n = 1
Hi! Just check whether %Inh is below 20%. Below gives TRUE, equal or above gives FALSE.

Lab log: compare recorded %Inh with 20%; is it strictly lower for O=C(Nc1n[nH]c2cc(-c3ccsc3)ccc12)C1CC1 ?
TRUE

Lab log: compare recorded %Inh with 20%; is it strictly lower for CC(C)c1cc(-c2ccc3c(N)n[nH]c3c2)nc(N)n1 ?
TRUE

Lab log: compare recorded %Inh with 20%; is it strictly lower for CS(=O)(=O)CCNCc1nc(-c2ccc3ncnc(Nc4ccc5c(cnn5Cc5ccccc5)c4)c3c2)cs1.Cl.Cl ?
FALSE

Lab log: compare recorded %Inh with 20%; is it strictly lower for Cc1ccc(-c2nc(Nc3ccncc3)c3ccccc3n2)s1 ?
TRUE

Lab log: compare recorded %Inh with 20%; is it strictly lower for CCCCc1nn2ncccc2c1-c1ccnc(NC2CC2)n1 ?
FALSE

Lab log: compare recorded %Inh with 20%; is it strictly lower for Cc1ccc(NC(=O)c2ccc(Cl)cc2)cc1-c1ccc(C(=O)Nc2ccncc2)cc1 ?
FALSE

Lab log: compare recorded %Inh with 20%; is it strictly lower for O=C(Nc1n[nH]c2nc(-c3cccs3)c(Br)cc12)C1CCCC1 ?
TRUE

Lab log: compare recorded %Inh with 20%; is it strictly lower for COc1ccc(Nc2nccc(NCCNC(=O)Nc3cc(C)ccc3C)n2)cc1 ?
TRUE

Lab log: compare recorded %Inh with 20%; is it strictly lower for COC(=O)C(NC(=O)NC1CCN(c2ccnc(Nc3ccc(F)cc3)n2)C1)c1ccccc1 (stereo not drawn) ?
FALSE
